Assay: Pharmacokinetics in rats after intravenous and oral gavage dosing, plasma LC-MS/MS
Type: in vivo
Settings: rat, in vivo; SD rats, plasma; 15 mg/kg oral gavage / 1 mg/kg intravenous; table does not state the route
Response key: met means Cmax >= 100 nM; not met means Cmax < 100 nM.

Smi: COc1ccc2c(=O)cc(C3CCNCC3)oc2c1O
Label Class: not met

Smi: O=c1cc(C2CCNCC2)oc2c(F)c(O)ccc12
Label Class: not met

Smi: O=c1cc(C2CCNCC2)oc2c(O)c(O)ccc12
Label Class: met

Smi: O=C(O)[C@H]1O[C@@H](Oc2c(O)ccc3c(=O)cc(-c4ccccc4)oc23)[C@H](O)[C@@H](O)[C@@H]1O
Label Class: met

Smi: [2H]c1c([2H])c([2H])c(-c2cc(=O)c3ccc(O[C@@H]4O[C@H](C(=O)O)[C@@H](O)[C@H](O)[C@H]4O)c(O)c3o2)c([2H])c1[2H]
Label Class: met

Smi: O=c1cc(C2CCNCC2)oc2c(F)c(F)ccc12
Label Class: met

Smi: O=c1cc(-c2ccccc2)oc2c(F)c(O)ccc12
Label Class: not met

Taken from patent EP4755877A1.
